target: BRD4 (Homo sapiens, UniProt O60885); test: biochemical; type: binding; details: one of the FRET assays described; read-out: FRET BRD4 IC50
pIC50: −log10 of the molar value.
observedProperty: pIC50

Cc1nnn(C)c1-c1ccc2c3ncc(C(C)(C)O)cc3n([C@H](c3ccc(F)cc3)C3CCOCC3)c2c1 [Example 3] = > 9.00
[2H]C([2H])([2H])c1nnn(C)c1-c1cc2c(cc1F)c1ncc(C(C)(C)O)cc1n2C(c1cc(C)ccn1)C1CCOCC1 (single isomer, unassigned) [Example 52] = > 8.30
Cc1nnn(C)c1-c1cc(Cl)c2c3ncc(C(C)(C)O)cc3n(C(CCC(F)(F)F)CCC(F)(F)F)c2c1 [Example 12] = > 8.30
Cc1nnn(C)c1-c1ccc2c3ncc(C(C)(C)O)cc3n([C@H](c3ccccc3)C3CCOCC3)c2c1F [Example 20] = > 8.30
[2H]C([2H])([2H])c1nnn(C)c1-c1cc2c(cc1F)c1ncc(C(C)(C)O)cc1n2C(CCC)c1ncccc1F (single isomer, unassigned) [Example 39] = > 8.30

Enquiry: Entry under review: [2H]C([2H])([2H])c1nnn(C)c1-c1ccc2c3ncc(C(C)(C)O)cc3n(C(c3ncccc3F)C3CCOCC3)c2c1F (single isomer, unassigned) [Example 84] . Reported pIC50?
Return: > 8.30

Enquiry: Next record, please: [2H]C([2H])([2H])c1nnn(C)c1-c1cc2c(cc1F)c1ncc(C(C)(C)O)cc1n2C(CCC)c1ncccc1F (single isomer, unassigned) [Example 38]
Return: > 9.00

Enquiry: Next record, please: [2H]C([2H])([2H])c1nnn(C)c1-c1cc2c(cc1Cl)c1ncc(C(C)(C)O)cc1n2C(c1ncccc1F)C1CCOCC1 (single isomer, unassigned) [Example 75]
Return: > 5.82

###

biological target: BRD4 (Homo sapiens); assay: biochemical; assay type: binding; settings: one of the FRET assays described; read-out: FRET BRD4 IC50
pIC50: −log10 of the molar value.
Below, each of the compounds is paired with its reported pIC50 value.

Completed entries (count: 10):
[2H]C([2H])([2H])c1nnn(C)c1-c1cc2c(cc1Cl)c1ncc(C(C)(C)O)cc1n2[C@H](c1ccccc1)C1CCOCC1 = > 5.82
[2H]C([2H])([2H])c1nnn(C)c1-c1cc2c(cc1F)c1ncc(S(C)(=O)=O)cc1n2[C@H](c1ccccc1F)C1CCOCC1 = > 9.00
Cc1nnn(C)c1-c1cc2c(cc1F)c1ncc(C(C)(O)C3CC3)cc1n2[C@H](c1ccccc1F)C1CCOCC1 (single isomer, unassigned) [Example 24] = > 8.30
Cc1nnn(C)c1-c1ccc2c3ncc(C(=O)O)cc3n([C@H](c3ccccc3F)C3CCOCC3)c2c1 = > 8.30
Cc1nnn(C)c1-c1cc2c(cc1F)c1ncc(C(C)(O)C3CC3)cc1n2[C@H](c1ccccc1F)C1CCOCC1 (single isomer, unassigned) [Example 23] = > 8.30
Cc1nnn(C)c1-c1cc(F)c2c3ncc(C(C)(C)O)cc3n(C(CCC(F)(F)F)CCC(F)(F)F)c2c1 = > 8.30
[2H]C([2H])([2H])c1nnn(C)c1-c1cc2c(cc1Cl)c1ncc(C(C)(C)O)cc1n2C(CCC)c1ncccc1F (single isomer, unassigned) [Example 82] = > 5.82
Cc1nnn(C)c1-c1cc2c(cc1F)c1ncc(C(C)(C)O)cc1n2C(c1ncccn1)C1CCOCC1 (single isomer, unassigned) [Example 55] = > 5.82
[2H]C([2H])([2H])c1nnn(C)c1-c1cc2c(cc1F)c1ncc(C(C)(C)O)cc1n2C(c1cc(OC)ccn1)C1CCOCC1 (single isomer, unassigned) [Example 51] = > 5.82
Cc1nnn(C)c1-c1cc2c(cc1F)c1ncc(C(C)(C)O)cc1n2C(c1ncccn1)C1CCOCC1 (single isomer, unassigned) [Example 54] = > 8.30

Enquiry: Entry under review: [2H]C([2H])([2H])c1nnn(C)c1-c1cc2c(cc1F)c1ncc(C(C)(C)O)cc1n2C(CC1COC1)c1ccccc1 (racemic) . Reported pIC50?
Return: > 9.00

Enquiry: Next record, please: [2H]C([2H])([2H])c1nnn(C)c1-c1cc2c(cc1F)c1ncc(C(C)(C)O)cc1n2C(c1ccccc1)C1COC1 (single isomer, unassigned) [Example 67]
Return: > 8.30
